tested system: Metabotropic glutamate receptor 8 (Rattus norvegicus)
assay details: mGluR8 Gi/Go-coupled signaling modulation – cell-based, rat, thallium flux, HTS, primary screen (AID 488969)
stated conditions: HEK293 rat mGluR8, GIRK thallium flux, FluoZin2; at 10 µM; stronger effect = higher value; submaximal glutamate (EC20) added with thallium
Whole data set: some 110,000 compounds, median “z-score” near -0.1, cut for the highest 2% near 2. The entries come from a sample that favours the highest values as a whole.
Label rule, in plain words: z-score of 0.003 and up is yes, under 0.003 is no.

Query block: Given `Cc1nc2ccc(S(=O)(=O)NCC(=O)N3CCOCC3)cc2s1` , state whether its z-score is at least 0.003.
Result block: no

Query block: Given `C=CCn1c(-c2csc(-c3ccccc3)n2)n[nH]c1=S` , state whether its z-score is at least 0.003.
Result block: yes

Query block: Given `C/C(=N/Nc1ccc(F)cc1)c1ccc(Cl)s1` , state whether its z-score is at least 0.003.
Result block: yes

Query block: Given `O=C(CSc1nc2nc3c(cc2c(=O)n1-c1ccccc1)CCCC3)Nc1ccccc1` , state whether its z-score is at least 0.003.
Result block: no

Query block: Given `Cc1c(NC(=O)Cn2cnc3c(=O)n(C)c(=O)n(C)c32)cccc1-c1nc2ccccc2o1` , state whether its z-score is at least 0.003.
Result block: yes

Query block: Given `Cc1ccc(-c2nnc(SCC(=O)Nc3ccc4c(c3)OCCO4)n2N)cc1` , state whether its z-score is at least 0.003.
Result block: yes

Query block: Given `Cc1nnn(C23CC4CC(CC(C4)C2)C3)n1` , state whether its z-score is at least 0.003.
Result block: no

Query block: Given `c1cnc(N2CCSCC2)nc1` , state whether its z-score is at least 0.003.
Result block: no

Query block: Given `Cc1cc2cc(CN(CCN3CCOCC3)C(=O)Nc3ccccc3F)c(=O)[nH]c2cc1C` , state whether its z-score is at least 0.003.
Result block: no

Query block: Given `COc1ccc(-c2nnc(SCC(=O)Nc3ccc4c(c3)OCCO4)n2N)cc1OC` , state whether its z-score is at least 0.003.
Result block: no

Query block: Given `Cc1nc(NC(=O)c2ccccc2)sc1-c1csc(NCc2ccco2)n1` , state whether its z-score is at least 0.003.
Result block: no

Query block: Given `CCOc1ccc(NC(=O)CN2CCN(CC(=O)Nc3ccc(F)c(F)c3)CC2)cc1` , state whether its z-score is at least 0.003.
Result block: no

Query block: Given O=C(NC(C(=O)N/N=C/c1c2ccccc2cc2ccccc12)c1n[nH]c(=O)c2ccccc12)c1ccccc1 (configuration not stated) , state whether its z-score is at least 0.003.
Result block: no

Query block: Given `C/C(=N\NC(N)=S)c1ccc(Cl)s1` , state whether its z-score is at least 0.003.
Result block: yes

Query block: Given `Cn1c(SCC(=O)Nc2ccc(N3CCOCC3)c(Cl)c2)nnc1-c1ccccc1` , state whether its z-score is at least 0.003.
Result block: no

Query block: Given `CC(C)c1nnc(SCC(=O)NCc2ccc3c(c2)OCO3)n1C` , state whether its z-score is at least 0.003.
Result block: no

Query block: Given `COc1cc(/C(C)=N/NC(=S)NC(C)C)cc(OC)c1OC` , state whether its z-score is at least 0.003.
Result block: no

Query block: Given `Cc1ccc(NC(=S)N/C(=N/S(=O)(=O)c2ccccc2)c2ccccc2)cc1` , state whether its z-score is at least 0.003.
Result block: yes

Query block: Given `C/C(=N\NC(=O)C(=O)Nc1cccc(C(F)(F)F)c1)c1ccc(Cl)s1` , state whether its z-score is at least 0.003.
Result block: yes

Query block: Given CC1CCCC(C)N1C(=O)CSc1nnc(COc2ccccc2)n1-c1ccccc1 (configuration not stated) , state whether its z-score is at least 0.003.
Result block: no

Query block: Given `COc1ccc(NC(=O)c2ccco2)cc1NC(=O)c1ccc(Br)o1` , state whether its z-score is at least 0.003.
Result block: no

Query block: Given `S=c1nn[nH]n1C12CC3CC(CC(C3)C1)C2` , state whether its z-score is at least 0.003.
Result block: yes

====

tested system: Metabotropic glutamate receptor 8 (Rattus norvegicus) (UniProt P70579)
Sequence (P70579 whole entry, looked up): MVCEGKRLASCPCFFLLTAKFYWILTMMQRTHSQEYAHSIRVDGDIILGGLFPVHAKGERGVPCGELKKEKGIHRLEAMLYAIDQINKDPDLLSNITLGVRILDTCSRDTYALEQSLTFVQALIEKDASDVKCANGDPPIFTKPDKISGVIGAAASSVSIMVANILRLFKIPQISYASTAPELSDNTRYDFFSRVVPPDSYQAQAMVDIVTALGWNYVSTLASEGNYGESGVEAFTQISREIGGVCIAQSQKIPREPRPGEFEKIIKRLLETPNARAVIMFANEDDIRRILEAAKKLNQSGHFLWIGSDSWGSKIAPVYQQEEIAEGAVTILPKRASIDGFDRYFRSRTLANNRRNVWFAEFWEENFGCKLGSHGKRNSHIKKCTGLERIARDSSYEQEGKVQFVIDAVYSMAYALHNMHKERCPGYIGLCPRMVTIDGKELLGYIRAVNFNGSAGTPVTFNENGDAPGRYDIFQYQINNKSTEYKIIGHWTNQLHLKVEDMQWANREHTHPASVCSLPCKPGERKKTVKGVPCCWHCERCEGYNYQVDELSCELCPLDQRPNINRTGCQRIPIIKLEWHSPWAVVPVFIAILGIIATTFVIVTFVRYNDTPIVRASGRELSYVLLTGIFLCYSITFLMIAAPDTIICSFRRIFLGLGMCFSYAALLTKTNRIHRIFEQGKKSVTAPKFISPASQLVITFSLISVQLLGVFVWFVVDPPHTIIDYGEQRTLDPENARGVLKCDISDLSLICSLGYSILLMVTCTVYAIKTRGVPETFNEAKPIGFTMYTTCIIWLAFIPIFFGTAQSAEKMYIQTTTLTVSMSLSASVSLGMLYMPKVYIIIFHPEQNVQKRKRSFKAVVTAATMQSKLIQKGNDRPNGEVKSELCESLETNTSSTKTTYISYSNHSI
assay details: mGluR8 Gi/Go-coupled signaling modulation – cell-based, rat, thallium flux, HTS, primary screen (AID 488969)
stated conditions: HEK293 rat mGluR8, GIRK thallium flux, FluoZin2; at 10 µM; stronger effect = higher value; submaximal glutamate (EC20) added with thallium
Whole data set: some 110,000 compounds, median “z-score” near -0.1, cut for the highest 2% near 2. This excerpt belongs to a sample that is enriched for the highest values.
I'd appreciate it if you could supply z-score values for the items below.
Format: numeric value only, no unit, no commentary.

Please fill in: z-score reported for `Cc1ccc(C(=O)CC(=O)COc2ccc(Cl)cc2C)cc1` = 5.45

Please fill in: z-score reported for `CC1=CC(C)(C)N(C(=O)c2ccccc2)c2ccc(C)cc21` = -0.576

Please fill in: z-score reported for `Cc1cc(Cl)ccc1OCC(=O)NC1CCCC1` = 0.0341

Please fill in: z-score reported for `N#Cc1cn(-c2ccccc2)nc1-c1ccco1` = -0.0798

Please fill in: z-score reported for `Cc1ccc(C(=O)CC(=O)COc2ccc(Cl)cc2)cc1` = 5.07

Please fill in: z-score reported for `Cc1ccc(NCCC(=O)c2ccc(Cl)cc2)cc1` = -0.27

Please fill in: z-score reported for CCOC(=O)C1CCCN(Cc2cccs2)C1 (configuration not stated) = -0.137

====

tested system: Metabotropic glutamate receptor 8 (Rattus norvegicus)
assay details: mGluR8 Gi/Go-coupled signaling modulation – cell-based, rat, thallium flux, HTS, primary screen (AID 488969)
stated conditions: HEK293 rat mGluR8, GIRK thallium flux, FluoZin2; at 10 µM; stronger effect = higher value; submaximal glutamate (EC20) added with thallium
In all, about 110,000 compounds were measured (“z-score”: median about -0.1, highest 2% from about 2 on). The sample as a whole holds a higher share of the highest values than the screen did.
I'd appreciate it if you could supply z-score values for the items below.
Format: numeric value only, no unit, no commentary.

For `Cc1cc2c(cc1C)C(=O)NC(C)(C)C2` on Metabotropic glutamate receptor 8 (Rattus norvegicus), measured z-score was 5.66

For `CC1(C)Cc2ccccc2C(=O)N1` on Metabotropic glutamate receptor 8 (Rattus norvegicus), measured z-score was 0.0959

For `O=C(c1ccc([N+](=O)[O-])cc1)N(Cc1ccc(Cl)cc1)N1C(=O)CCCC1=O` on Metabotropic glutamate receptor 8 (Rattus norvegicus), measured z-score was -0.682

For `CC(C)c1ccc2c(c1)C(=O)NC(C)(C)C2` on Metabotropic glutamate receptor 8 (Rattus norvegicus), measured z-score was -0.156

For COc1cc(C2C(Oc3ccccc3C)C(=O)N2Cc2ccc(F)cc2)cc(OC)c1OC (stereo unspecified) on Metabotropic glutamate receptor 8 (Rattus norvegicus), measured z-score was -0.106

For `CCN(CC)c1ncnc2c1cnn2C` on Metabotropic glutamate receptor 8 (Rattus norvegicus), measured z-score was -0.228

====

tested system: Metabotropic glutamate receptor 8 (Rattus norvegicus) (UniProt P70579)
assay details: mGluR8 Gi/Go-coupled signaling modulation – cell-based, rat, thallium flux, HTS, primary screen (AID 488969)
stated conditions: HEK293 rat mGluR8, GIRK (G protein-gated inwardly rectifying potassium channel) thallium flux, FluoZin2; at 10 µM; stronger effect = higher value; submaximal glutamate (EC20) added with thallium
In all, about 110,000 compounds were measured (“z-score”: median about -0.1, highest 2% from about 2 on). For the sample, the highest values were picked, then their nearest neighbours and some compounds at random.
parameter: z-score
Format: numeric value only, no unit, no commentary.

Please fill in: z-score reported for `N#Cc1c(/N=C/c2cc3ccccc3s2)sc2c1CCC2` = -0.0332

Please fill in: z-score reported for `Cc1csc(SCC(=O)Nc2nc3ccccc3s2)n1` = 3.3

Please fill in: z-score reported for O=C(CC(c1ccco1)C1CCCCC1=O)c1ccccc1 (centres undefined) = -0.656

Please fill in: z-score reported for `O=C(NC(=S)Nc1ccccc1N1CCOCC1)c1ccc(-c2cc(Cl)ccc2Cl)o1` = 0.0698

Please fill in: z-score reported for O=C(NCc1cc(C(F)(F)F)cc(C(F)(F)F)c1)C1CC(c2c(Cl)cccc2Cl)=NO1 (centres undefined) = -0.111

Please fill in: z-score reported for `Cc1ccccc1C(=O)Nc1nc(=S)ss1` = 2.56

Please fill in: z-score reported for `O=C(CCC(=O)OCC(=O)c1cccc([N+](=O)[O-])c1)Nc1cccc(Cl)c1Cl` = -0.0921

Please fill in: z-score reported for `CC(=O)c1ccc(N2Cc3ccccc3/C2=N\C(=O)Nc2ccccc2)cc1` = -0.211

Please fill in: z-score reported for `Oc1ccccc1C1=Nc2ccccc2N=C(c2cccs2)C1` = 0.0299

Please fill in: z-score reported for `O=C(Nc1ccc2oc(-c3ccncc3)nc2c1)c1ccccc1F` = -0.225

Please fill in: z-score reported for `CC(=O)Nc1nc(=S)ss1` = 0.468

Please fill in: z-score reported for `Cc1[nH]n(-c2ccc(F)cc2)c(=O)c1/C=N/c1sc2c(c1C#N)CCCC2` = 13

Please fill in: z-score reported for `O=C(Nc1ccc2c(c1)OCCO2)C1CCN(c2cnccn2)CC1` = 2.51

Please fill in: z-score reported for `Cc1cc2cc(C)c3nnc(SCC(=O)N4CCc5ccccc54)n3c2cc1C` = -0.31

Please fill in: z-score reported for `CC(=O)CN1Cc2ccccc2/C1=N\C(=O)Nc1ccccc1` = 3.19

Please fill in: z-score reported for `Cc1csc(NC(=O)CSc2nc3ccccc3s2)n1` = -0.293

Please fill in: z-score reported for `Cc1csc(N(C(=O)c2cccc(S(=O)(=O)N3CCCC3)c2)c2ccccc2)n1` = -0.475

Please fill in: z-score reported for `CN(C)c1nc(Oc2ccc(N)cc2)nc(N(C)C)n1` = 0.322

Please fill in: z-score reported for `Cc1csc(N(C(=O)c2ccc(S(=O)(=O)N(C)C)cc2)c2ccccc2)n1` = 0.4

Please fill in: z-score reported for `CCCC(=O)Nc1nc2ccc(S(N)(=O)=O)cc2s1` = -0.295

Please fill in: z-score reported for `COc1cc(SC#N)ccc1N=Cc1c(C)[nH]n(-c2cccc3ccccc23)c1=O` = -0.32

Please fill in: z-score reported for `Cc1occc1-c1nnc(SCC(=O)N(C)CCC#N)n1N` = 0.286

Please fill in: z-score reported for `Cc1csc(SCC(=O)Nc2nc(-c3ccccc3)cs2)n1` = 1.07

Please fill in: z-score reported for `Cc1ccccc1C(=O)Nc1nncs1` = -0.0319
